melting point values for the compounds below.

Some solved cases for reference:
{"compound": "O=C(NCc1ccc(Cl)cc1)c1nnc2ccc(CN3CCOCC3)cc2c1O [Example 5]", "melting point": "277 to 280 °C (dec.)"}
{"compound": "O=C(NCc1ccc(Cl)cc1)c1nnc2ccc(I)cc2c1O [Comp. 2]", "melting point": "307 to 308 °C"}

Lookup: Look up melting point for this compound: O=C(NCc1ccc(Cl)cc1)c1n[nH]c2ccccc2c1=O [Comp. 1]
Found: 269 to 271 °C
